I'd appreciate it if you could supply z-score values for the items below.
# Protocol summary: fission yeast growth modulation, primary screen, strain 972, OD600, 24 h, no modulator (AID 1090);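 further: basal condition with compound alone and no growth modifier present; test concentration not given here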
# Condition details: S. pombe 972 growth, higher = more signal, called active from +8 up or from −8 down
// no unit, no text: just the number

**Query** Return value of z-score for input CC(=O)OC[C@H]1O[C@H](CC=NOC[C@@H](O)[C@H]2O[C@@H]3OC(C)(C)O[C@@H]3[C@H]2O)C=C[C@@H]1OC(C)=O , no commentary.
**Result** 1.09

**Query** Please report the measured z-score for C[C@H]1CC[C@H]2C(=O)O[C@H](CO)CN2[C@@H]1c1ccc(Br)cc1
**Result** -16.2

**Query** Note down z-score recorded for C[C@H]1CC[C@@H](C(=O)O)N[C@@H]1c1cccc(N2CCCC2=O)c1
**Result** 0.0026

**Query** Quick one: give measured z-score for O=C1[C@H]2[C@H]3[C@H](O)[C@H](O)CC(=NOCc4ccccc4)[C@@H]3CC[C@H]2C(=O)N1c1cccc(Oc2ccccc2)c1
**Result** 0.277

---

For each of the compounds below, state its z-score.
# Assayed target: Luciferin 4-monooxygenase (Photinus pyralis) (UniProt P08659)
# Sequence (P08659 whole entry, looked up): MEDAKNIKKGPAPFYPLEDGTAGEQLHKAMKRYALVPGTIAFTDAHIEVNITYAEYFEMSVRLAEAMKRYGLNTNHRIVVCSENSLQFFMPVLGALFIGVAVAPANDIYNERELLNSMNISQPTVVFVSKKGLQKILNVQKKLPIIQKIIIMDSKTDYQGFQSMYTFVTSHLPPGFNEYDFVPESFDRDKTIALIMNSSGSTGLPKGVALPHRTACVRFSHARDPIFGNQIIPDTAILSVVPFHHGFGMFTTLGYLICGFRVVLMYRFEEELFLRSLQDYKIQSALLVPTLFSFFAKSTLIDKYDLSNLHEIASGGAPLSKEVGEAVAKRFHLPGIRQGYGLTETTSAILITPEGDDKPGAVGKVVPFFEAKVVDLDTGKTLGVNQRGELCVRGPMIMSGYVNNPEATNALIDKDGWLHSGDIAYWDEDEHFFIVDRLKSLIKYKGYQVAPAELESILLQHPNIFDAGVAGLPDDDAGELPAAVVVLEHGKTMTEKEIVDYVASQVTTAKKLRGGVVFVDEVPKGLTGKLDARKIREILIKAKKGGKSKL
# Protocol summary: firefly luciferase enzyme inhibitors, primary screen, biochemical, luminescence, purified enzyme, 2006 set (AID 1141);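 further: cell-free assay with purified firefly luciferase at 100 ng per well in PBS; test concentration not given here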
# Condition details: SteadyGlo luminescence, 30 min, higher = more signal, called active from +8 up or from −8 down
Just the number, please.

**Query** Quick one: give measured z-score for COC(=O)[C@H](C)NC(=O)CCC1CC(OC(=O)NCc2cccc3ccccc23)CC2(CCCC(COC(=O)NCCC(C)C)O2)O1 (stereo not given in full)
**Result** 0.652

**Query** Identify the reported z-score for the following entry. O=C1C[C@H](c2ccccc2)[C@H](c2ccc(Br)cc2)O1
**Result** -1.8

**Query** Please supply the value of reported z-score for the item O=C(NN=C1C[C@@H](O)[C@@H](O)[C@@H]2[C@@H]3C(=O)N(Cc4ccccc4)C(=O)[C@@H]3CC[C@H]12)OCc1ccccc1
**Result** 0.534

**Query** Please look at this compound and report its z-score: CCOC(=O)NN=C1C[C@@H](O)[C@@H](O)[C@@H]2[C@@H]3C(=O)N(C[C@@H]4CCCO4)C(=O)[C@@H]3CC[C@H]12
**Result** 0.515

**Query** Look up z-score of CCN1C(=O)[C@H]2[C@H]3[C@H](O)[C@H](O)CC(=NO[C@@H](C)c4cc(-c5c(C)cc(C)cc5C)no4)[C@@H]3CC[C@H]2C1=O and report it.
**Result** 1.06

**Query** Query z-score for CC(C)CON=C1C[C@@H](O)[C@@H](O)[C@@H]2[C@@H]3C(=O)N(C(C)(C)C)C(=O)[C@@H]3CC[C@@H]12
**Result** 0.444

**Query** Indicate the recorded z-score value for this compound: O=C1[C@H]2[C@H]3[C@H](O)[C@H](O)CC(=NOC[C@@H](O)COCc4ccco4)[C@@H]3CC[C@H]2C(=O)N1Cc1ccc2c(c1)OCO2
**Result** -0.0365

**Query** Dear colleague, please send me the reported z-score for O=C1C2=CC[C@H]3C(=O)N(C[C@@H]4CCCO4)C(=O)[C@H]3[C@H]2[C@H](O)[C@@H]2O[C@H]12 when you can.
**Result** -0.518

**Query** Note z-score for the compound shown: C#CCCCON=C1[C@H]2CCn3c(=O)n(Cc4cc5c(cc4Cl)OCO5)c(=O)n3[C@H]2[C@H](O)[C@@H]2O[C@H]12
**Result** 0.303

**Query** Please give measured z-score of the following entry: CC(=O)OC[C@H]1O[C@H](CC=NOC[C@@H](O)COCc2ccco2)C=C[C@@H]1OC(C)=O
**Result** 0.642

**Query** Note down z-score recorded for CCCC[C@H]1CN2[C@@H](CC[C@@H](C)[C@@H]2c2ccc(Br)cc2)C(=O)O1
**Result** -2.12

**Query** Input C[C@@H]1CC[C@H]2C(=O)OC(CN3C(=O)c4ccccc4C3=O)CN2[C@H]1c1ccc(Br)cc1 (stereo not given in full) , output reported z-score.
**Result** -0.796

**Query** For the compound COC(=O)C(C(=O)OC)C1CCCC(=O)C1 (stereo not given) , give its reported z-score.
**Result** 0.138

**Query** Given O=C1C=C[C@@H](O)[C@@H]2[C@@H]3C(=O)N(C4CCCCC4)C(=O)[C@@H]3CC[C@@H]12 , respond with its z-score.
**Result** -0.611

**Query** Report z-score for CC(=O)OC[C@H]1O[C@@H](ON=C(C)CCC(=O)OC[C@H]2O[C@H](C#Cc3ccccc3)C=C[C@@H]2Oc2ccc(C)cc2)[C@H](OC(C)=O)[C@@H](OC(C)=O)[C@@H]1OC(C)=O
**Result** -0.305

**Query** Specify reported z-score for the compound shown: CO[C@H]1COC(=O)CC=C[C@H](C)[C@H](OC)COC(=O)[C@@H](C)NC(=O)CC=C[C@@H]1C
**Result** 1.14

**Query** Give a short answer stating reported z-score for CO[C@H]1COC(=O)[C@H](C)COC(=O)[C@H](C)NC(=O)CC=C[C@H]1C .
**Result** -0.403

**Query** Entry CCN1C(=O)[C@H]2[C@H]3[C@H](O)[C@H](O)CC(=NOC[C@@H](O)[C@H]4O[C@@H]5OC(C)(C)O[C@@H]5[C@H]4O)[C@@H]3CC[C@H]2C1=O needs its z-score filled in; supply it.
**Result** -0.819

**Query** Return value of z-score for input CCOC(=O)CCN1C(=O)[C@H]2[C@@H]3C(=CC[C@H]2C1=O)C(=O)[C@H]1O[C@H]1[C@H]3O , no commentary.
**Result** -1.04

**Query** Give recorded z-score. CC(=O)OC[C@H]1O[C@H](CC=NOC(C)CN2CCCCc3nc(C)c(C)cc32)C=C[C@@H]1OC(C)=O (stereo not given in full)
**Result** 1.46

**Query** Provide measured z-score value, entry: CC(=O)OC[C@H]1O[C@@H](ON=C2[C@H]3CCn4c(=O)n(-c5ccccc5)c(=O)n4[C@H]3[C@H](O)[C@@H]3O[C@H]23)[C@H](OC(C)=O)[C@@H](OC(C)=O)[C@@H]1OC(C)=O
**Result** 0.939

**Query** Hello, please tell me recorded z-score for this one: CC(C)=NO[C@H](C)c1cn([C@@H]2COC[C@H]2O)nn1
**Result** 0.0821

**Query** Please report z-score for the following compound: O=C(NN=C1C[C@@H](O)[C@@H](O)[C@@H]2[C@@H]3C(=O)N(c4ccc(F)cc4F)C(=O)[C@@H]3CC[C@H]12)OCc1ccccc1
**Result** 0.934

**Query** State, in one line, measured z-score of CC(C)[C@@H](OCc1ccccc1)[C@H](C)C=NO[C@H](C)c1cn([C@@H]2COC[C@H]2O)nn1
**Result** 1.06

**Query** Recall and state the measured z-score for CCN1C(=O)[C@H]2[C@H]3[C@H](O)[C@H](O)CC(=NO[C@H](C)c4cn([C@H](CO)Cc5ccccc5)nn4)[C@@H]3CC[C@H]2C1=O .
**Result** 0.275

**Query** For the compound CCOC(=O)[C@H](Cc1ccccc1)NC(=O)CCC1CC(OC(=O)NCc2cccc3ccccc23)CC2(CCCC(COC(=O)NCCOc3ccccc3)O2)O1 (stereo not given in full) , give its measured z-score value.
**Result** 1.13

**Query** Name the recorded z-score of the compound listed here: COC(=O)[C@H](CCSC)NC(=O)CC=C[C@@H](C)CO
**Result** -0.08

**Query** Please indicate z-score recorded for CCOC(=O)[C@H](Cc1ccccc1)NC(=O)CCC1CC(OC(=O)NCc2ccc3c(c2)OCO3)CC2(CCCC(COC(=O)NCCCN3CCCC3=O)O2)O1 (stereo not given in full)
**Result** 1.12

**Query** Tell me measured z-score for COc1ccc(-c2cnnc(CCCn3ccnc3-c3ccccc3)n2)cc1 please.
**Result** 0.313

**Query** Given CO[C@H]1COC(=O)CCC[C@H](C)[C@@H](OC)COC(=O)CC=C[C@@H]1C , respond with its z-score.
**Result** 0.949
